# System: MDA-MB-231
# PROCEDURE TEXT: MTT cell viability assay, MDA-MB-231
# Type: cell-based, human
# ASSAY CONDITIONS: Homo sapiens, MDA-MB-231; 120 h; IC50 ± SEM; read-out: IC50 MDA-MB-231, 120 h MTT assay
ENDPOINT: pIC50
Expect pIC50 as a plain number equal to -log10 of the molar concentration.

Prompt line: Query: pIC50; subject: `C=C1C[C@@H]2[C@H](CC[C@]3(C)C(=O)CC[C@@H]23)[C@@]2(C)C=CC(=O)C=C12`
Response line: 4.27

###

The following compounds have recorded pIC50 on HDAC4 (Homo sapiens).
Sequence (P56524 whole entry): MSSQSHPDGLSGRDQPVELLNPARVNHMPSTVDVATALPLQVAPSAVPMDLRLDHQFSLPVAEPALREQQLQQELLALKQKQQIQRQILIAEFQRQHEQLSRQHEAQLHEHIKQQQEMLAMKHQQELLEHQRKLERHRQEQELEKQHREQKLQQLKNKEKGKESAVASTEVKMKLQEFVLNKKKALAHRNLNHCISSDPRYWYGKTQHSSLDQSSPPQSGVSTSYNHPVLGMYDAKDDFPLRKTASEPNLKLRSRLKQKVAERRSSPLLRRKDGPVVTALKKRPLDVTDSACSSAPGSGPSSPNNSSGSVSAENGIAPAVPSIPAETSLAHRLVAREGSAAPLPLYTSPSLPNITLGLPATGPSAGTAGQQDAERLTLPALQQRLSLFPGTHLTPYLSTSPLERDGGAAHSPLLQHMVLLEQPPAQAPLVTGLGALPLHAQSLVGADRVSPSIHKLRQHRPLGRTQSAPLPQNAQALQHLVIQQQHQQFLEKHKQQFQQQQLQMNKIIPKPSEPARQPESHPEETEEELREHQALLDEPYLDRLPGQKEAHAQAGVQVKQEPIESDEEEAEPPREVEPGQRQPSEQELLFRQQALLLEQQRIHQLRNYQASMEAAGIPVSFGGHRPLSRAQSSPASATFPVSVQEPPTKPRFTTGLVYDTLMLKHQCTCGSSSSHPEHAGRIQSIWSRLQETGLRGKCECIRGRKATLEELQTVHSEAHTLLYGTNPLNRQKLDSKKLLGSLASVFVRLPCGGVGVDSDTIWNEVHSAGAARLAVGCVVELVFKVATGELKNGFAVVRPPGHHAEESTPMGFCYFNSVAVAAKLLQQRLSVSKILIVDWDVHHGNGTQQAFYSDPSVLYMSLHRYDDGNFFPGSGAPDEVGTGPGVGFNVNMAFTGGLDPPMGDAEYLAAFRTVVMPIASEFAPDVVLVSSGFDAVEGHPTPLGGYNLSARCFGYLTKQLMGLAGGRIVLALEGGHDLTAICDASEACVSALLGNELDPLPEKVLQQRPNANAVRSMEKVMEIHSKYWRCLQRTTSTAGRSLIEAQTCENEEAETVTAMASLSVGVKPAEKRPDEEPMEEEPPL
Expect pIC50 as a plain number equal to -log10 of the molar concentration.

Prompt line: Query: pIC50; subject: O=C(O)CCCC[C@@H]1CCSS1 [(R)-α-lipoic acid]
Response line: 3.77

Prompt line: Query: pIC50; subject: O=C(O)CCCC[C@H]1CCSS1 [(S)-α-lipoic acid]
Response line: 3.49

Prompt line: Query: pIC50; subject: O=C(O)CCCCC1CCSS1 (racemic)
Response line: 3.58

###

# ASSAYED TARGET: HDAC8 (Homo sapiens, UniProt Q9BY41)
# Sequence (Q9BY41 whole entry): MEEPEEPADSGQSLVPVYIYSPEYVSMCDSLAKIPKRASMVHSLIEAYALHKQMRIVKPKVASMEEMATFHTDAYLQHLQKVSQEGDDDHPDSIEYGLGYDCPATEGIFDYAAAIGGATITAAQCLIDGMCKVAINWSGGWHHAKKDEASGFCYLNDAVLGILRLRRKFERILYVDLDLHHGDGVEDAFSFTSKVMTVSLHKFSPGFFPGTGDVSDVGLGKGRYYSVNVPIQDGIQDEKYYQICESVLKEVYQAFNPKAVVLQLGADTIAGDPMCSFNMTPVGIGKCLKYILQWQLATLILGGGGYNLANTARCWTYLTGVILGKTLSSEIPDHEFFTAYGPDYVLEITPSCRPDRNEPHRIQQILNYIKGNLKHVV
# PROCEDURE TEXT: Enzyme HDAC inhibition assay, HDAC8
# ASSAY CONDITIONS: read-out: IC50 HDAC 8; IC50 ± SEM; three experiments in duplicates
In this section we review reported IC50 values for a set of molecules.
Reply with the number, then its unit.

// known answers, use as guide
O=C(O)CCCCC1CCSS1 (racemic)    464 µM
O=C(O)CCCC[C@H]1CCSS1 [(S)-α-lipoic acid]    559 µM

Now let's try a different one.
Prompt line: Query: IC50; subject: O=C(O)CCCC[C@@H]1CCSS1 [(R)-α-lipoic acid]
Response line: 151 µM

###

In this section we review reported pIC50 values for a set of molecules.
# Test system: class I/IIb HDAC activity in T47D cells
# PROCEDURE TEXT: cells
# Type: cell-based, human
# ASSAY CONDITIONS: T47D cells, 48 h, substrate Boc-Lys-AC-AMC; IC50 ± SEM, one experiment in triplicates; read-out: IC50 Cellular HDAC Assay
Expect pIC50 as a plain number equal to -log10 of the molar concentration.

// known answers, use as guide
O=C(O)CCCCC1CCSS1 (racemic)    2.93
O=C(O)CCCC[C@H]1CCSS1 [(S)-α-lipoic acid]    3.04

Now let's try a different one.
Prompt line: // fetch class I/IIb HDAC activity in T47D cells pIC50 for O=C(O)CCCC[C@@H]1CCSS1 [(R)-α-lipoic acid]
Response line: 3.01

###

# Tested on: T47D
# PROCEDURE TEXT: MTT cell viability assay, T47D
# Format: cell-based, human
# ASSAY CONDITIONS: 72 h MTT; slightly above; read-out: IC50 T47D
ENDPOINT: IC50

Prompt line: Query: IC50; subject: O=C(O)CCCC[C@@H]1CCSS1 [(R)-α-lipoic acid]
Response line: ~1000 µM

###

# Test system: MDA-MB-231
# PROCEDURE TEXT: MTT cell viability assay, MDA-MB-231
# Format: cell-based, human
# ASSAY CONDITIONS: 72 h MTT; slightly below; read-out: IC50 MDA-MB-231
ENDPOINT: IC50

Prompt line: // fetch MDA-MB-231 IC50 for O=C(O)CCCC[C@@H]1CCSS1 [(R)-α-lipoic acid]
Response line: ~1000 µM

Hello, the source for this data is paper PMC11313180, in case you need it.
